Tested on: KM12
ASSAY NOTES: NCI tumour cell line growth inhibition, 48 h
Activity calls are given as the source filed them. Rule as the data show it: active = GI50 up to about 1.1 µM and inactive = higher.
MEASURED PARAMETER: GI50

Completed entries (count: 4):
molecule=COc1ccccc1/C=C1\Sc2scc(-c3cccc([N+](=O)[O-])c3)[n+]2C1=O measured_result="10.8 µM (inactive)"
molecule=CCOC(=O)/C(O)=C(/C(=O)OC)c1ccc(Cl)cc1 measured_result="> 100 µM (inactive)"
molecule=COc1ccc(OC)c(/C=C/C(=O)C(C)(C)C)c1 measured_result="21.1 µM (inactive)"
molecule="CN(C(=O)C12C3C4(C(=O)O)C1(C(=O)N(C)C(C)(C)C)C1C2(C(=O)O)C3(C(=O)N(C)C(C)(C)C)C14C(=O)N(C)C(C)(C)C)C(C)(C)C (stereo not given)" measured_result="> 100 µM (inactive)"

Let us move to another entry and its GI50.
Problem: What GI50 value was documented for this molecule, "CCCN(C(=O)c1c(Cl)nnc(Cl)c1C(=O)c1cc(Cl)nnc1Cl)c1cc(Cl)nnc1Cl" ?
Result: 11.5 µM (inactive)

* * *

Test system: SK-OV-3
ASSAY NOTES: NCI tumour cell line growth inhibition, 48 h
Active and inactive are the calls of the source. No stated cut-off is given here; in the data, active = GI50 up to about 1.1 µM and inactive = higher. Where a SMILES comes first, the peptide text is derived from it. The star is where a group is joined. Fmoc = O=C(OCC1c2ccccc2-c2ccccc21)*; Boc = CC(C)(C)OC(=O)*
For each record, write down the corresponding GI50.

compound="CC(C)C1/C(=N/O)CC(c2ccccc2)N(N=O)C1c1ccccc1 (stereo not drawn)" measured_parameter=GI50 measured_result="24.8 µM (inactive)"

Give one value of GI50 per listed compound.
1. CSc1cc(=O)n2c3ccccc3c3ccnc1c32
2. O=C1c2cc([N+](=O)[O-])cnc2S(=O)(=O)N1c1ccc(Br)cc1
3. CC(C)(C)OC(=O)NCCCCC(NC(=O)C(Cc1c[nH]c2ccccc12)NC(=O)OCC1c2ccccc2-c2ccccc21)C(=O)O (stereo not drawn) (Fmoc-Trp-Lys(Boc)-OH; configuration not given here)
4. O=C1c2ccccc2-c2ccc(/N=[N+](/[O-])c3ccc4c(c3)C(=O)c3ccccc3-4)cc21
5. COc1ccc(CNc2cc(OC)c(OC)c(OC)c2)cc1

Result:
25.6 µM (inactive)
> 100 µM (inactive)
5 µM (inactive)
> 100 µM (inactive)
5.65 µM (inactive)

Kindly give each listed record's GI50.
1. c1ccc2c(c1)cc1n2CCc2c-1[nH]c1ccccc21
2. N#Cc1c(NC(=S)NCc2ccccc2)sc2c1CCN(N1CCc3c(sc(NC(=S)NCc4ccccc4)c3C#N)C1)C2
3. OCC(O)COc1ccc(Br)cc1 (stereo not drawn)

Result:
1: > 10 µM (inactive); 2: > 100 µM (inactive); 3: > 100 µM (inactive)

# map each compound to its GI50
1. Brc1ccc2c(-c3csc(-c4c[nH]c5ccc(Br)cc45)n3)c[nH]c2c1
2. O=C1CCC[C@]2(CCC[C@@H](O)C2)N1
3. CC(C)(CO)NC(=O)Nc1c(C(F)(F)F)cc(-c2ccccc2)[nH]c1=O

Result:
11.2 µM (inactive)
> 100 µM (inactive)
> 100 µM (inactive)

* * *

Test system: BT-549
ASSAY NOTES: NCI tumour cell line growth inhibition, 48 h
Calls of active or inactive are those of the source. No stated cut-off is given here; in the data, active = GI50 up to about 1.1 µM and inactive = higher.
Would you kindly list GI50 for each of these molecules?

molecule=Nc1ccc(S(=O)(=O)Nc2nnc(S(N)(=O)=O)s2)cc1 measured_parameter=GI50 measured_result="> 100 µM (inactive)"
molecule="CCOC(=O)C1(Cc2ccc3c(c2)CCC3)Cc2cc3c(cc2C1=O)CCC3 (stereo not given)" measured_parameter=GI50 measured_result="76.7 µM (inactive)"
molecule=Cc1[nH]n(-c2nc(O)c(C)c(=O)[nH]2)c(=O)c1CCO measured_parameter=GI50 measured_result="> 100 µM (inactive)"

Quick request: GI50 for each listed item, please.
1. O=c1cc(NNCc2ccccc2)[nH]c(=O)[nH]1
2. CCOC(=O)C(=O)CC(=O)C1=C(c2ccccc2OC)CC(c2cccs2)=CC1=O
3. O=N/N=c1\o[n-][n+](CCc2ccccc2)c1Cc1/c(=N/N=O)o[n-][n+]1CCc1ccccc1
4. O=C1c2cccc3cccc(c23)C(=O)N1CCCNCCCCNCCCN1C(=O)c2cccc3cccc(c23)C1=O
5. CN(C)CCSc1cc(-c2ccccc2)c2ccccc2n1
6. COC(OC)C(O)C1OC=CC1n1cnc2c(N)ncnc21 (stereo not given)

Result:
> 100 µM (inactive)
> 100 µM (inactive)
32.9 µM (inactive)
1.25 µM (inactive)
12.3 µM (inactive)
> 100 µM (inactive)

Problem: Entry under review: CC12CCCC(C(=O)O)(C1)[C@H](C(C)(C)C(=O)O)CC2 (stereo not given in full) . Reported GI50?
Result: > 100 µM (inactive)

* * *

Tested on: ACHN
ASSAY NOTES: NCI tumour cell line growth inhibition, 48 h
Active and inactive are the calls of the source. Rule as the data show it: active = GI50 up to about 1.1 µM and inactive = higher.
Could you please pick one outcome from this set? active, inactive

Completed entries (count: 2):
compound=CC1(C)NC(=O)N(CCCCCCN2C(=O)NC(C)(C)C2=O)C1=O discrete_label=inactive
compound=CCCCc1ccc(N2C(=O)c3cc([N+](=O)[O-])cnc3S2(=O)=O)cc1 discrete_label=inactive

Problem: What outcome does the record of this test show for "COc1ccc2c(N=[N+]=[N-])c(-c3ccccc3)c(=O)oc2c1" ?
Result: inactive

Problem: Test call for this compound, please: CCOP(=O)(OCC)C(Nc1ccc(F)cc1)c1cccc([N+](=O)[O-])c1 (stereo not given)
Result: inactive

* * *

Test system: HCC 2998
ASSAY NOTES: NCI tumour cell line growth inhibition, 48 h
The source made the active and inactive calls. Cut-off read from the data, not from the text of the source: active = GI50 up to about 1.1 µM and inactive = higher.
Give measured GI50 for each item. Keep answers brief.

Sample records with GI50:
molecule=Cc1ccc2c(c1)C(=O)/C(=C\c1ccc(Cl)cc1)CCS2(=O)=O measured_result="2.13 µM (inactive)"
molecule=Nc1ccc2c(SCC(=O)Nc3ccccc3-c3ccccc3NC(=O)CSc3c4ccccc4nc4cc(N)ccc34)c3ccccc3nc2c1 measured_result="36.1 µM (inactive)"
molecule=O=C(Nc1ccc(Sc2ccc(/N=N/c3c(O)c(S(=O)(=O)O)cc4cc(S(=O)(=O)O)ccc34)cc2)cc1)c1ccc(/N=N/c2c(O)ccc3c(S(=O)(=O)O)cc(S(=O)(=O)O)cc23)cc1 measured_result="> 100 µM (inactive)"
molecule="CSc1nc(C)cc(=O)n1C1OC(COC(C)=O)C(OC(C)=O)C(OC(C)=O)C1OC(C)=O (stereo not drawn)" measured_result="> 100 µM (inactive)"
molecule=Brc1ccc2c(-c3csc(-c4c[nH]c5ccc(Br)cc45)n3)c[nH]c2c1 measured_result="2.32 µM (inactive)"
molecule=O=C1c2cc([N+](=O)[O-])cnc2S(=O)(=O)N1c1ccc(Br)cc1 measured_result="> 100 µM (inactive)"
molecule="CC1(C)CC(=O)C2=C(C1)OC1(CC2c2ccc(Cl)cc2)CC(c2ccc(Cl)cc2)C2=C(CC(C)(C)CC2=O)O1 (stereo not drawn)" measured_result="16.3 µM (inactive)"
molecule="NC(Cc1ccc(S(=O)(=O)O)cc1)C(=O)NC(Cc1ccc(S(=O)(=O)O)cc1)C(=O)NC(Cc1ccc(S(=O)(=O)O)cc1)C(=O)NC(Cc1ccc(S(=O)(=O)O)cc1)C(=O)O (stereo not drawn)" measured_result="> 100 µM (inactive)"
molecule=COc1cc2c(cc1C)NC(=O)/C2=C/c1cccnc1 measured_result="2.34 µM (inactive)"
molecule=CC1(C)CC(=O)c2c([nH]c(=S)c(C#N)c2-c2ccc(Br)cc2)C1 measured_result="35.8 µM (inactive)"

The following molecules each have a reported value; give each one's GI50.
1. Clc1ccc(Cc2nc3cc(Cl)ccc3o2)cc1
2. Brc1ccc(-c2nnc(-c3nn(-c4ccccc4)c4nc5ccccc5nc34)o2)cc1

Result:
["21.6 µM (inactive)", "> 100 µM (inactive)"]

Give GI50 for all molecules that follow.
1. O=C1C(Cl)=C(Cl)C(=O)C2=C1C1c3ccccc3C2c2ccccc21
2. CCOC(=O)C1=C(Nc2ccccc2)SC/C1=N\NC(=O)Cc1ccccc1

Result:
63.8 µM (inactive)
> 100 µM (inactive)

For every item below, please supply its GI50.
1. COc1cc2oc(-c3ccc(O)cc3)cc(=O)c2c(OC)c1OC
2. CC(=O)NC(NCCN)(c1ccccc1)c1ccccc1
3. Cc1cc2occ(C)c(=O)c2c2c1OC(C)(C)S2
4. COc1ccc(C[P+]2(c3ccccc3)CCCCC2)cc1.O=[N+]([O-])c1ccc(C[P+]2(c3ccccc3)CCCCC2)cc1.[O-][Cl+3]([O-])([O-])[O-].[O-][Cl+3]([O-])([O-])[O-]

Result:
1: > 100 µM (inactive); 2: > 100 µM (inactive); 3: > 100 µM (inactive); 4: > 100 µM (inactive)

Data origin: ChEMBL document CHEMBL1201862
